Values from paper PMC5723703

Target: human S1P4 receptor (Homo sapiens, UniProt O95977)
Sequence (O95977 1-384): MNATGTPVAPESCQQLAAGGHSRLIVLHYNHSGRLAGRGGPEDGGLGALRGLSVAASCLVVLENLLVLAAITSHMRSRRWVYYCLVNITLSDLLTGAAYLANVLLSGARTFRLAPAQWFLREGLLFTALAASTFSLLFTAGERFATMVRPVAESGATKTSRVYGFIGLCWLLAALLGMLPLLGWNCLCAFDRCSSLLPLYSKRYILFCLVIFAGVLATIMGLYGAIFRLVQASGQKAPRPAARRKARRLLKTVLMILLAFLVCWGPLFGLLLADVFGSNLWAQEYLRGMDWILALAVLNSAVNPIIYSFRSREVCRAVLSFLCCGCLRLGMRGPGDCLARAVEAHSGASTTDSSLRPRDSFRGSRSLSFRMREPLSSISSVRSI
Assay type: biochemical
Conditions: EC50 S1P4 receptor, (35S)-GTPγS, human recombinant receptor
measure.name: pEC50
pEC50 (log units): -log10 of the concentration in mol/L.

Enquiry: For the compound CCc1cc(-c2noc(-c3cc(OC)nc(C4CCCC4)c3)n2)cc(C)c1OC[C@@H](O)CO , what pEC50 is on record?
Return: 5.68
